Entries and their measured IC50 follow.
target.under.test: His6-PDK1(Δ1-50) (Homo sapiens)
Construct: His6 (N)
assay.method.text: Inhibition of PDK1 (IC50), 384-well flashplate kinase assay
Format: biochemical
test.parameters: 4 μM ATP, 400 nM PDKtide, first part of Table 1 (compounds 1-31)
Please give a number only; it is taken to be in µM.

molecule	IC50 [µM]
Cc1ccc2c(c1)Nc1nc(N(C)C3CCN(C)CC3)ncc1C(=O)N2	2.4
Cc1ccc2c(c1)NC(=O)c1cnc(N(C)C3CCN(C)CC3)nc1N2 [Compound 14]	0.4
CCOc1ccc2c(c1)NC(=O)c1cnc(NC3CCN(C)CC3)nc1N2	1

Incoming: Data request, read-out IC50, for Cc1ccc2c(c1)NC(=O)c1cnc(N(C)C3CCN(C)CC3)nc1N2 [Compound 6]
Outgoing: 1.1

Incoming: Data request, read-out IC50, for `CN1CCC(N(C)c2ncc3c(n2)Nc2ccc(C(F)(F)F)cc2NC3=O)CC1`
Outgoing: 1.6

* * *

target.under.test: His6-PDK1(Δ1-50) (Homo sapiens, UniProt O15530)
Construct: His6 (N)
Sequence (O15530 51-556, stated change not applied): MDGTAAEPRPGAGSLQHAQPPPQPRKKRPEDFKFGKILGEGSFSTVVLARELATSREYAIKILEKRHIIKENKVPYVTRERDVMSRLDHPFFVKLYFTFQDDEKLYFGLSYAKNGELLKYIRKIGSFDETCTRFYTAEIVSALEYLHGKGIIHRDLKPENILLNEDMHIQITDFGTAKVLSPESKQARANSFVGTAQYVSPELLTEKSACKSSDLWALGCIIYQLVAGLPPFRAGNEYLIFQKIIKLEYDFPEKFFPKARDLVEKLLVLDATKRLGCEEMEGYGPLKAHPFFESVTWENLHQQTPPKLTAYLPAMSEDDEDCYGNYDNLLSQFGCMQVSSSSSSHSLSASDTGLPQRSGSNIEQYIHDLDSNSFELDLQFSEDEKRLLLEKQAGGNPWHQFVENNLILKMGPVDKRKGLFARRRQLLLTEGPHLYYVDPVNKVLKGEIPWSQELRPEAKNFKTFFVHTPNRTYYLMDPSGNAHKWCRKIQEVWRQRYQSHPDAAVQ
assay.method.text: Inhibition of PDK1 (IC50), 384-well flashplate kinase assay
Type: biochemical
test.parameters: 4 μM ATP, 400 nM PDKtide, first part of Table 1 (compounds 1-31)
Experimental: Inhibition of PDK1 (IC50) The kinase assay can be carried out as a 384-well flashplate assay. […] The nonspecific content of the kinase reaction (blank) is determined using 100 nM staurosporine. Radioactivity is measured using a Topcount scintillation counter (PerkinElmer, USA). IC50 values are calculated using the RS1 computer program.
Entries and their measured IC50 follow.
Give me the value, and tack the unit on after it.

The examples below pair each entry with its known result.
compound	IC50
CN1CCC(Nc2ncc3c(n2)Nc2ccc(C(C)(C)C)cc2NC3=O)CC1	700 nM
CN1CCC(N(C)c2ncc3c(n2)Nc2cc(Cl)ccc2NC3=O)CC1	1700 nM
CN1CCC(Nc2ncc3c(n2)Nc2cc(C(F)(F)F)ccc2NC3=O)CC1	3900 nM
Cc1noc(C)c1-c1ccc2c(c1)NC(=O)c1cnc(N(C)C3CCN(C)CC3)nc1N2	3200 nM
Cc1cc2c(cc1C)Nc1nc(N(C)C3CCN(C)CC3)ncc1C(=O)N2	1000 nM

Incoming: Which IC50 is reported with His6-PDK1(Δ1-50) (Homo sapiens, UniProt O15530) for this entry: `CN1CCC(N(C)c2ncc3c(n2)Nc2ccc(Br)cc2NC3=O)CC1` ?
Outgoing: 1700 nM

Incoming: Which IC50 is reported with His6-PDK1(Δ1-50) (Homo sapiens, UniProt O15530) for this entry: `COc1ccc2c(c1)NC(=O)c1cnc(N(C)C3CCN(C)CC3)nc1N2` ?
Outgoing: 800 nM

Incoming: Which IC50 is reported with His6-PDK1(Δ1-50) (Homo sapiens, UniProt O15530) for this entry: Cc1ccc2c(c1)NC(=O)c1cnc(NC3CCN(C)CC3)nc1N2 [Compound 19] ?
Outgoing: 600 nM

Incoming: Which IC50 is reported with His6-PDK1(Δ1-50) (Homo sapiens, UniProt O15530) for this entry: `Cc1ccc2c(c1)Nc1nc(NC3CCN(C)CC3)ncc1C(=O)N2` ?
Outgoing: 4800 nM

Incoming: Which IC50 is reported with His6-PDK1(Δ1-50) (Homo sapiens, UniProt O15530) for this entry: `CN1CCC(N(C)c2ncc3c(n2)Nc2ccc(Cl)cc2NC3=O)CC1` ?
Outgoing: 1400 nM

Incoming: Which IC50 is reported with His6-PDK1(Δ1-50) (Homo sapiens, UniProt O15530) for this entry: `Cc1ccc2c(c1C)Nc1nc(N(C)C3CCN(C)CC3)ncc1C(=O)N2` ?
Outgoing: 2600 nM

Incoming: Which IC50 is reported with His6-PDK1(Δ1-50) (Homo sapiens, UniProt O15530) for this entry: `Cc1ccc2c(c1)NC(=O)c1cnc(N(C(C)C)C3CCN(C)CC3)nc1N2` ?
Outgoing: 6200 nM

Incoming: Which IC50 is reported with His6-PDK1(Δ1-50) (Homo sapiens, UniProt O15530) for this entry: `CN1CCC(N(C)c2ncc3c(n2)Nc2ccc(C(C)(C)C)cc2NC3=O)CC1` ?
Outgoing: 400 nM

Incoming: Which IC50 is reported with His6-PDK1(Δ1-50) (Homo sapiens, UniProt O15530) for this entry: `CN1CCC(N(C)c2ncc3c(n2)Nc2ccc(-c4ccsc4)cc2NC3=O)CC1` ?
Outgoing: 1000 nM

Incoming: Which IC50 is reported with His6-PDK1(Δ1-50) (Homo sapiens, UniProt O15530) for this entry: `Cc1ccc2c(c1C)Nc1nc(NC3CCN(C)CC3)ncc1C(=O)N2` ?
Outgoing: 3600 nM

Incoming: Which IC50 is reported with His6-PDK1(Δ1-50) (Homo sapiens, UniProt O15530) for this entry: `CN1CCC(N(C)c2ncc3c(n2)Nc2ccccc2NC3=O)CC1` ?
Outgoing: 2300 nM
